- Experimental Target: Human 5-lipoxygenase (Homo sapiens, UniProt P09917)
- Construct: purchased Cayman 60402; host or cells: insect cells
- Sequence (P09917 1-674): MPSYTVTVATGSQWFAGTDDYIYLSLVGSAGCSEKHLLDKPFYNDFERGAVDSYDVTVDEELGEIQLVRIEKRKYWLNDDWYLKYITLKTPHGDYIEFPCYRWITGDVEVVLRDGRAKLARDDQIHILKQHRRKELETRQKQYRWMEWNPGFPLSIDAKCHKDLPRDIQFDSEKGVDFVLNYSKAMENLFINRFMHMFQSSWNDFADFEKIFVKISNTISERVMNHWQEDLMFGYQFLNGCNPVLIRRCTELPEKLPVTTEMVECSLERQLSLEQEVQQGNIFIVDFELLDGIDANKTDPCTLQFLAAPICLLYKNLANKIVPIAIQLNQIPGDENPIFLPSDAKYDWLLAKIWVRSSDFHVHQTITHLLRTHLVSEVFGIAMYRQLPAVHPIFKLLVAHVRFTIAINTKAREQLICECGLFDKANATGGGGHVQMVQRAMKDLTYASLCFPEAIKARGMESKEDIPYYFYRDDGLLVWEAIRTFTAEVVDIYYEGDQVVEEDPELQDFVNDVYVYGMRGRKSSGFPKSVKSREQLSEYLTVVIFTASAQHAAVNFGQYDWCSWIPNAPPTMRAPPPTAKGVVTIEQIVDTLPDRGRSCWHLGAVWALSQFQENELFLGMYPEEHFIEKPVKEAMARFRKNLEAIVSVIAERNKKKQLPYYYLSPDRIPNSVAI
- Assay Info: Activity of compounds against 5-LO enzyme (LTB4 measurement and/or fluorescence method)
- Assay type: biochemical
- Condition Description: 5-LO, single concentration of 10 uM in duplicate
Quantity Kind: inhibition at 10 µM

Worked set:
{"columns": ["Smiles Entry", "Result"],
 "data": [
  ["CCc1nc2ccc(Cl)cn2c1C(=O)NCc1ccc(/C=C/c2ccc(F)cc2)cc1", "< 40%"],
  ["CCc1nc2cc(Cl)ccn2c1NC(=O)Cc1ccc(-c2ccccc2)cc1", "40 to 69%"],
  ["CCc1nc2cc(Cl)ccn2c1C(=O)NCc1nc2ccc(-c3ccc(OC(F)(F)F)cc3)cc2o1", "< 40%"],
  ["CCc1nc2ccc(Cl)cn2c1C(=O)N1CCC(OCc2ccc(OC)cc2)CC1", "< 40%"]
]}

We now examine a further compound.
Problem: Find the recorded inhibition at 10 µM belonging to CCc1nc2ccc(Cl)cn2c1C(=O)NCCc1ccc(Cl)cc1 and report it.
Solution: 40 to 69%

====

- Experimental Target: Human 5-lipoxygenase (Homo sapiens)
- Construct: purchased Cayman 60402; host or cells: insect cells
- Sequence (P09917 1-674): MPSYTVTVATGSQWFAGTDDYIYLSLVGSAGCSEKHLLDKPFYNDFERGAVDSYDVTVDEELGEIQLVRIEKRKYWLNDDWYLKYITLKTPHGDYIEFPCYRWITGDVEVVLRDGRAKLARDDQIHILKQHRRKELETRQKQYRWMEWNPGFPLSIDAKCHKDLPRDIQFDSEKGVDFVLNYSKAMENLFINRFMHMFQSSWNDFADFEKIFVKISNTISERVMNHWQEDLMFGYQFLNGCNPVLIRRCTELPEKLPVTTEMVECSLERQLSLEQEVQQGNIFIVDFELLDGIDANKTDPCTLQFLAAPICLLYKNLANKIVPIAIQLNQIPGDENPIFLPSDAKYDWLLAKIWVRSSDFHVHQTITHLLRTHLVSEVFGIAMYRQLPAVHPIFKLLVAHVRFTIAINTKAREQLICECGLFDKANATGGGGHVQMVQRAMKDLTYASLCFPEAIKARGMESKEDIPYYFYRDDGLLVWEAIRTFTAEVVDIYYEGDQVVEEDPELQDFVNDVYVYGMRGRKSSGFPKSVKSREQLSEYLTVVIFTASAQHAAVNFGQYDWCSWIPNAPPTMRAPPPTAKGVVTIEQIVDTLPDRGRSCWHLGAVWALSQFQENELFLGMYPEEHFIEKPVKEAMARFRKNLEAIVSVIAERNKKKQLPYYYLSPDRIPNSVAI
- Assay Info: Activity of compounds against 5-LO enzyme (LTB4 measurement and/or fluorescence method)
- Assay type: biochemical
- Condition Description: 5-LO, single concentration of 10 uM in duplicate
Quantity Kind: inhibition at 10 µM

{"columns": ["Molecule", "Quantity Kind", "Result"],
 "data": [
  ["CCc1nc2cc(Cl)ccn2c1C(=O)NCc1ccn(-c2ccc(F)cc2)n1 [compound 154]", "inhibition at 10 µM", "< 40%"],
  ["CCc1nc2ccc(Cl)cn2c1C(=O)NCc1ccc(Oc2ccc(OC(F)(F)F)cc2)nc1 [compound 189]", "inhibition at 10 µM", "> 69%"],
  ["CCc1nc2cc(Cl)ccn2c1C(=O)NCc1ccc(-c2ccc(OC(F)(F)F)cc2)cc1 [compound 112]", "inhibition at 10 µM", "40 to 69%"]
]}

Problem: Given the entry CCc1nc2ccccn2c1C(=O)NCc1ccc(OC(C)C)cc1 [compound 53] , report its measured inhibition at 10 µM.
Solution: < 40%

Problem: What value of inhibition at 10 µM has been recorded for this entry: CCc1nc2ccc(Cl)cn2c1C(=O)NCc1ccc2oc(C3CCCCC3)nc2c1 [compound 298]
Solution: > 69%

Problem: Record request: inhibition at 10 µM value, item CCc1nc2ccc(Cl)cn2c1C(=O)NCc1ccc(C2CCN(C(=O)Cc3ccc(F)cc3)CC2)cc1 [compound 327]
Solution: 40 to 69%

Problem: Give its inhibition at 10 µM value. Item: CCc1nc2cc(Cl)ccn2c1C(=O)NCc1ccc(N2CCC(c3ccc(OC(F)(F)F)cc3)CC2)cc1 [compound 268]
Solution: 40 to 69%

Problem: Request the reported inhibition at 10 µM associated with CCc1nc2ccc(Cl)cn2c1C(=O)NCc1ccc(N2CCN(C(=O)Cc3ccc(F)cc3)CC2)cc1 [compound 320]
Solution: < 40%
